Assay: Pharmacokinetics of flumatinib and M1 in SD rats with or without isavuconazole
Type: in vivo, Sprague-Dawley male rats
Settings: male, Sprague-Dawley, rat, plasma, po, 60 mg/kg, group A: 60 mg/kg flumatinib dosed orally alone
Would you mind telling me the reported Tmax of each entry?
# unit: h | format: bare number

I have this compound here, Cc1ncc(NC(=O)c2ccc(CN3CCN(C)CC3)c(C(F)(F)F)c2)cc1Nc1nccc(-c2cccnc2)n1 , and I need its recorded Tmax.
6

Moving on to the next compound: Cc1ncc(NC(=O)c2ccc(CN3CCNCC3)c(C(F)(F)F)c2)cc1Nc1nccc(-c2cccnc2)n1
2.6

====

Would you mind telling me the reported AUC(0-inf) of each entry?
Assay: Pharmacokinetics of flumatinib and M1 in SD rats with or without isavuconazole
Format: in vivo, Sprague-Dawley male rats
Settings: male, Sprague-Dawley, rat, plasma, po, 60 mg/kg, group A: 60 mg/kg flumatinib dosed orally alone
# unit: ng·h/mL | format: bare number

I have this compound here, Cc1ncc(NC(=O)c2ccc(CN3CCN(C)CC3)c(C(F)(F)F)c2)cc1Nc1nccc(-c2cccnc2)n1 [flumatinib] , and I need its recorded AUC(0-inf).
3040

Moving on to the next compound: Cc1ncc(NC(=O)c2ccc(CN3CCNCC3)c(C(F)(F)F)c2)cc1Nc1nccc(-c2cccnc2)n1 [M1, N-desmethyl flumatinib]
314

Data provenance is paper PMC10192561.
